- test_details: Plasma protein binding assay (PPB), equilibrium dialysis
- Type: in vitro ADME
- settings: bovine, 10% FCS in PBS, read-out: PPB 10% FCS (% fu)
Classes (fraction unbound): low value = under 0.07, medium value = from 0.07 up to 0.2, high value = 0.2 and over

Would you mind sorting "C[C@H](Oc1nc(-c2noc3c2CCC[C@@]32CCCc3sc(N)c(C#N)c32)nc2c1CN(c1ncccn1)[C@@]21CCOC1)[C@@H]1CCCN1C" into the appropriate category?
low value

Tag the class for "C[C@H](Oc1nc(-c2onc3c2CCC[C@@]32CCCc3sc(N)c(C#N)c32)nc2c1n(C)c(=O)n2[C@@H]1CCOC1)[C@@H]1[C@@H](F)CCN1C"
low value

Bin? "C[C@H](Oc1nc(-c2onc3c2CCC[C@@]32CCCc3sc(N)c(C#N)c32)nc2c1n(C)c(=O)n2[C@@H]1CCOC1)C12CCCN1CCC2"
high value

###

- test_details: Metabolic (microsomal) stability assay, human liver microsomes (HLM)
- Assay type: in vitro ADME
- settings: 1 μM test compound, predicted clearance as percent of liver blood flow
assay_endpoint: HLM QH (%)
The answer is to be given in %; state only the numeric part.

Known HLM QH results, listed for orientation:
smiles_input	assay_endpoint	meas_value
C[C@@H]1COC[C@H](n2c(=O)n(C)c3c(O[C@@H](C)[C@@H]4CC[C@H](C)N4C)nc(-c4onc5c4CCC[C@@]54CCCc5sc(N)c(C#N)c54)nc32)C1	HLM QH	45
C[C@H](Oc1nc(-c2noc3c2CCC[C@@]32CCCc3sc(N)c(C#N)c32)nc2c1CNC[C@]21CCOC1)[C@@H]1CCCN1C	HLM QH	63

GET /value?item= "C[C@H](Oc1nc(-c2onc3c2CCC[C@@]32CCCc3sc(N)c(C#N)c32)nc2c1n(C)c(=O)n2[C@@]12COC[C@@H]1C2)[C@@H]1CC[C@H](C)N1C" &field=HLM QH returns 41

Lookup result for "CO[C@@H]1C[C@@H]([C@H](C)Oc2nc(-c3onc4c3CCC[C@@]43CCCc4sc(N)c(C#N)c43)nc3c2n(C)c(=O)n3[C@@H]2CCOC2)N(C)C1" ; measured HLM QH: 42

Sample "C[C@H](Oc1nc(-c2onc3c2CCC[C@@]32CCCc3sc(N)c(C#N)c32)nc2c1n(C)c(=O)n2[C@@H]1CCOC1)[C@@H]1CC[C@H](C)N1C" ; HLM QH observed: 42

###

- System: MKN1 cells
- test_details: MKN1 CTG proliferation assay (120 h) (gastric cancer, wt amplified)
- Type: cell-based
- settings: Homo sapiens, MKN-1
- Experimental: MKN1 cells (JCRB0252) are dispensed into black 384-well plates, flat and clear bottom (Greiner, PNr. 781091) at a density of 200 cells per well in 60 μl RPMI-1640 ATCC-Formulation (Gibco #A10491)+10% FCS (fetal calf serum, HyClone, SH30084.03). […] For the TO time point measurement, untreated cells are analyzed at the time of compound addition. Plates are incubated for 120 h, and cell viability is measured using CellTiter-Glo luminescent cell viability reagent (Promega product code G7570). […]
pIC50: −log10 of the molar value.
Record Yes whenever pIC50 is at 7 or higher; record No when lower.

Answered cases to consult:
compound	qualitative_label
C[C@H](Oc1nc(-c2onc3c2CCC[C@@]32CCCc3sc(N)c(C#N)c32)nc2c1n(C)c(=O)n2[C@@H]1CCOC1)[C@@H]1CCCN1C [I-20]	Yes
C[C@H](Oc1nc(-c2onc3c2CCC[C@@]32CCCc3sc(N)c(C#N)c32)nc2c1n(C)c(=O)n2[C@@H]1CCOC1)[C@@H]1CC[C@H](C)N1C [I-26]	Yes
C[C@H](Oc1nc(-c2noc3c2CCC[C@@]32CCCc3sc(N)c(C#N)c32)nc2c1CCO[C@]21CCOC1)[C@@H]1CCCN1C [II-9b]	Yes
C[C@H](Oc1nc(-c2onc3c2CCC[C@@]32CCCc3sc(N)c(C#N)c32)nc2c1n(C)c(=O)n2[C@H]1CC2CCC1O2)[C@@H]1CCCN1C (stereo partly drawn) [I-17]	No
C[C@H](Oc1nc(-c2onc3c2CCC[C@@]32CCCc3sc(N)c(C#N)c32)nc2c1[nH]c(=O)n2[C@@H]1CCCOC1)[C@@H]1CCCN1C [I-13]	Yes

Consider now this further compound.
Say whether CO[C@H]1C[C@@H](n2c(=O)n(C)c3c(O[C@@H](C)[C@@H]4CCCN4C)nc(-c4onc5c4CCC[C@@]54CCCc5sc(N)c(C#N)c54)nc32)C1 [I-31] shows pIC50 of 7 or more.
No

###

Listed below: pIC50 values for each entry.
- Tested on: SK-CO-1 cells
- test_details: SK-CO-1 CTG proliferation assay (120 h) (CRC, G12V)
- Type: cell-based
- settings: Homo sapiens
- Protocol: SK—CO-1 cells (ATCC HTB-39) are dispensed into black 384-well plates, flat and clear bottom (Greiner, PNr. 781091) at a density of 500 cells per well in 60 μl EMEM (Sigma M5650)+10% FCS (fetal calf serum, HyClone, SH30084.03). […] For the TO time point measurement, untreated cells are analyzed at the time of compound addition. Plates are incubated for 120 h, and cell viability is measured using CellTiter-Glo luminescent cell viability reagent (Promega product code G7570). […]
# pIC50: negative log10 of molar concentration; output just the value

For orientation, consider the following solved cases.
molecule	meas_value
CO[C@@H]1C[C@@H]([C@H](C)Oc2nc(-c3onc4c3CCC[C@@]43CCCc4sc(N)c(C#N)c43)nc3c2CN(C2COC2)C[C@]32CCOC2)N(C)C1	8.05
C[C@H](Oc1nc(-c2noc3c2CCC[C@@]32CCCc3sc(N)c(C#N)c32)nc2c1CNC[C@]21CCOC1)[C@@H]1CCCN1C	8.30
C[C@H](Oc1nc(-c2onc3c2CCC[C@@]32CCCc3sc(N)c(C#N)c32)nc2c1n(C)c(=O)n2[C@@H]1CCOC1)[C@@H]1C[C@@H]2C[C@@H]2N1C	7.17
Cc1nn([C@@H]2CCOC2)c2nc(-c3onc4c3CCC[C@@]43CCCc4sc(N)c(C#N)c43)nc(O[C@@H](C)[C@@H]3CCCN3C)c12	7.34
C[C@H](Oc1nc(-c2noc3c2CCC[C@@]32CCCc3sc(N)c(C#N)c32)nc2c1COC[C@]21CCOC1)[C@@H]1CCCN1C	9.00
C[C@H](Oc1nc(-c2onc3c2CCC[C@@]32CCCc3sc(N)c(C#N)c32)nc2c1n(C)c(=O)n2[C@H]1CC2CCC1O2)[C@@H]1CCCN1C (stereo partly drawn)	7.08
C[C@H](Oc1nc(-c2onc3c2CCC[C@@]32CCCc3sc(N)c(C#N)c32)nc2c1N(C)C(=O)CN2[C@@H]1CCOC1)[C@@H]1CCCN1C	6.49
CO[C@H]1C[C@H](n2c(=O)n(C)c3c(O[C@@H](C)[C@@H]4CCCN4C)nc(-c4onc5c4CCC[C@@]54CCCc5sc(N)c(C#N)c54)nc32)C1	6.61
CO[C@H]1CCN(C)[C@@H]1[C@H](C)Oc1nc(-c2onc3c2CCC[C@@]32CCCc3sc(N)c(C#N)c32)nc2c1CN(C1COC1)C[C@]21CCOC1	8.15
CCn1c(=O)n([C@@H]2CCCOC2)c2nc(-c3onc4c3CCC[C@@]43CCCc4sc(N)c(C#N)c43)nc(OC[C@@]34CCCN3C[C@H](F)C4)c21	6.04

"C[C@H](Oc1nc(-c2onc3c2CCC[C@@]32CCCc3sc(N)c(C#N)c32)nc2c1n(C)c(=O)n2[C@@H]1CCOC1)[C@@H]1[C@H](F)CCN1C" yielded pIC50 of 7.11

pIC50 in this record for "C[C@H](Oc1nc(-c2onc3c2CCC[C@@]32CCCc3sc(N)c(C#N)c32)nc2c1[nH]c(=O)n2[C@@H]1CCOC1)[C@@H]1CCCN1C" : 7.72

###

- test_details: Caco-2 assay (permeability and efflux ratio)
- Assay type: in vitro ADME
- settings: human, Caco-2 apical to basolateral permeability, pH 7.4, read-out: Caco PappAB
Catalogue of Papp A→B at 90 min, 10 μM readings, one per entry.
Form entry: value (×10⁻⁶ cm/s) — number only.

Guide cases for Papp A→B at 90 min, 10 μM, answers given:
smiles_input	Papp A→B at 90 min, 10 μM (×10⁻⁶ cm/s)
C[C@H](Oc1nc(-c2noc3c2CCC[C@@]32CCCc3sc(N)c(C#N)c32)nc2c1CN(C1COC1)C[C@]21CCOC1)[C@@H]1CCCN1C	2.9
C[C@H](Oc1nc(-c2onc3c2CCC[C@@]32CCCc3sc(N)c(C#N)c32)nc2c1n(C)c(=O)n2[C@@H]1CCOC1)[C@@H]1CCCN1C	11.9
CO[C@H]1CCN(C)[C@@H]1[C@H](C)Oc1nc(-c2onc3c2CCC[C@@]32CCCc3sc(N)c(C#N)c32)nc2c1n(C)c(=O)n2[C@H]1COC[C@@H](C)C1	36
CCn1c(=O)n([C@@H]2CCOC2)c2nc(-c3onc4c3CCC[C@@]43CCCc4sc(N)c(C#N)c43)nc(O[C@@H](C)[C@@H]3CCCN3C)c21	19

# input for lookup
Reported Papp A→B at 90 min, 10 μM of "C[C@H](Oc1nc(-c2noc3c2CCC[C@@]32CCCc3sc(N)c(C#N)c32)nc2c1n(C)c(=O)n2[C@H]1CO[C@@H](C)C1)[C@@H]1CCCN1C" : 8.7
